# testMethodNotes: gradient 5% acetonitrile 3 min, to 50% in 2 min, to 85% in 15 min, held 3 min, 100 µL/min
# measurementContext: column: Zorbax Extend-C18 2.1 x 50 mm; eluents: water / acetonitrile, 0.1% formic acid
Label true when RP-LC retention time >= 700 s; otherwise false.

compound: COc1ccc(NC(=O)c2cnc(N3CCN(c4ccccc4OC)CC3)nc2N)cc1
className: true

compound: CC1(C(=O)NCc2ccccc2Cl)Cn2cnc(C(=O)NCc3ccccc3)c2C(=O)N1C1CC1 (centres undefined)
className: true

compound: Cc1cc(C)c(S(=O)(=O)N2CCCC2c2nc(-c3ccc(F)cc3)no2)cc1C (centres undefined)
className: true

compound: CCOc1ccc(-n2c(=O)c3sccc3n(Cc3nc(-c4cccc(OC)c4)no3)c2=O)cc1
className: true

compound: O=C(c1ccco1)N1CCC(n2c(C3CCCC3)nc3cccnc32)C1 (centres undefined)
className: false

compound: Cc1ccc(NC(=O)C2CCC(=O)N2S(=O)(=O)c2ccc(C)c(C)c2)cc1C (centres undefined)
className: true

compound: CCCNC(=O)C1CCN(c2ccc(SCC(=O)N(C)c3ccccc3)nn2)CC1
className: false

compound: Cn1cc(C2=CCN(C(=O)c3cccc(F)c3)CC2)c2cccnc21
className: true

compound: COC(=O)c1cc(OCC(=O)NCc2ccc3c(c2)OCO3)c2cc(Cl)ccc2n1
className: true

compound: Cc1ccccc1C1CC(=O)c2cnc(N3CCC(C(N)=O)CC3)nc2C1 (centres undefined)
className: true

compound: O=C(c1ccccc1F)N1CCC(c2nc(-c3ccccc3)no2)C1 (centres undefined)
className: true

compound: COc1ccc(C(=O)CN(C(=O)N2CCN(C)CC2)S(=O)(=O)c2ccc(C)cc2)cc1
className: false

compound: COc1ccc(-n2nc(C)c3sc(N(C)CC(=O)N4CCN(c5ccccn5)CC4)nc32)cc1
className: false

compound: O=C(Nc1cccc2ccc(-n3ccnc3)nc12)c1ccsc1
className: false

compound: COCCn1c(C2CCN(C(=O)c3cccc(Cl)c3)C2)nc2ccncc21 (centres undefined)
className: false

compound: Cc1ccc(-c2noc(-c3nc(-c4ccccn4)no3)n2)cc1
className: true

compound: CCOC(=O)C1CCN(C(=O)C2CCN(c3nnc(-c4ccc(C)cc4)o3)CC2)CC1
className: true

compound: COc1ccc(-c2nc3cnccn3c2Nc2ccc(Br)cc2)cc1OC
className: true

compound: O=C(CSc1cc(-c2ccc(F)cc2)ncn1)NCc1ccc2c(c1)OCO2
className: true

compound: Cn1c(CNC(=O)C2CCC2)nc2c1CN(S(=O)(=O)c1ccc(Cl)s1)CC2
className: false

compound: Cc1ccc(S(=O)(=O)N2CCn3c(nn(CC4CC4)c3=O)C2)c(C)c1
className: true

compound: CCN(Cc1ccc(Cl)cc1)Cc1cc(=O)n2ccc(C)cc2n1
className: false

compound: CCn1c(C(=O)NCCCN2CCCCC2)c(N2CCCC2=O)c2cc(F)ccc21
className: false

compound: CCc1ccc(S(=O)(=O)Nc2ccc(N3CCCN(C)CC3)cc2C(=O)O)cc1
className: false

compound: CN1C(=O)c2cc(C(=O)NC3CCN(Cc4ccccc4)CC3)nn2CC1(C)C(=O)NC1CCCC1 (centres undefined)
className: false

compound: Cc1ccc(CNC(=O)C2(C)Cn3nc(C(=O)NCCC(C)C)cc3C(=O)N2C)cc1 (centres undefined)
className: true

compound: CC(C)Oc1ccc(-c2noc(Cn3c(=O)n(-c4ccc(Cl)cc4)c(=O)c4sccc43)n2)cc1
className: true

compound: CC1=C(C(=O)N2CC(c3noc(COc4ccc(C)cc4)n3)C2)C2(CCCCC2)OC1=O
className: true

compound: CCNc1cc(N2CCCC(CCC(=O)NCCc3cccs3)C2)ncn1 (centres undefined)
className: false

compound: COc1cccc(-c2nc(Cn3c(=O)c4c(C)cc(C)nc4n(C)c3=O)c(C)o2)c1OC
className: true

compound: COc1ccc(OC)c(CNC(=O)c2cn3ccccc3n2)c1
className: false

compound: O=C(C1CCCN(c2ncnc3c2nc2n3CCCCC2)C1)N1CCN(c2ccccn2)CC1 (centres undefined)
className: false
